Origin of values: the supplement of paper PMC11451515

# Tested on: NOMO1
# Assay Text: cell viability relative to DMSO control; higher = less cytotoxic
# Assay Context: RPMI 5 mM glucose + 10% dialyzed FBS; 48 h; 0.569 µM
Reported cell viability by item:
Respond numerically; units are % and should not be typed.

The following molecules have reported results that may help.
Molecule	U	Val
Cc1cn2c(-c3cn[nH]c3)cnc2c(Nc2ccc(C(=O)N3CCNCC3)cc2F)n1	%	92.5
CC[C@H](CC#N)OC(=O)N[C@@H](C)c1cccc(NC(=O)Nc2ccc(-c3cnco3)c(OC)c2)c1	%	91
COC1=NC(=NC(=C1N\C2=N\CCN2)Cl)C	%	91.3
C[C@H]1[C@H](NC(=O)/C(=N/OC(C)(C)C(=O)O)c2csc(N)n2)C(=O)N1[S+](=O)([O-])O	%	91.7
ClC1=C(N\C2=N\CCN2)C3=NSN=C3C=C1	%	140

Consider now this further molecule.
For the molecule CCC1(C)CC(=O)NC1=O (stereo unspecified) , give its measured cell viability value.
98.4

* * *

# System: SEM cells
# Assay Text: AUC of viability dose-response curve (% viability x log10 dose units); higher = less sensitive
# Assay Context: HPLM + 10% dialyzed FBS; 48 h
Readout Name: AUC of viability dose-response curve
// response body must contain only the number

The following compounds have reported results that may help.
Compound	Val
Cc1ccccc1C(C(=O)NC1CCCCC1)N(C(=O)Cn1ccnc1C)c1cccc(F)c1 (stereo unspecified)	449
N=C(CCSCc1csc(N=C(N)N)n1)N[S+](N)(=O)[O-]	452
C[C@H](O)[C@H]1[C@@H]2[C@H](C)C(=C(\N2C1=O)C(O)=O)/S[C@@H]3CN[C@H](CN[S+](N)([O-])=O)C3	443
CC(=O)O[C@H]1C[C@@H]2CC[C@@H]3[C@H](CC[C@@]4(C)[C@H]3C[C@H]([N+]3(C)CCCCC3)[C@@H]4OC(C)=O)[C@@]2(C)C[C@@H]1[N+]1(C)CCCCC1	477
CC1CCC(C(=O)N(c2cc(C#CC(C)(C)C)sc2C(=O)O)C2CCC(O)CC2)CC1 (stereo unspecified)	426

Consider now this further compound.
For the compound COC1=CC=CC2=C1C(=NC(=N2)C3=CC=CS3)NN4C(=O)\C=C(C)/C4=O , give its measured AUC of viability dose-response curve value.
264

* * *

# Test system: SEM cells
# Assay Text: cell viability relative to DMSO control; higher = less cytotoxic
# Assay Context: HPLM + 10% dialyzed FBS; 48 h; 0.0632 µM
Readout Name: cell viability (%)
Respond numerically; units are % and should not be typed.

Smiles Input	Readout Name	U	Val
CC(C)(C)c1cc(NC(=O)Nc2ccc(-c3cn4c(n3)sc3cc(OCCN5CCOCC5)ccc34)cc2)no1	cell viability	%	32.2
O=C(OC)[C@]12CC[C@@]3(C)[C@]4(C)CC[C@H]5[C@@](C)(C)C(=O)C(=C[C@]5(C)C4=CC(=O)[C@@H]3[C@@H]2C[C@](C)(C)CC1)C#N	cell viability	%	104
OC[C@H]1O[C@@H](O[C@@H]2[C@@H](CO)O[C@](O)(CO)[C@H]2O)[C@H](O)[C@@H](O)[C@H]1O	cell viability	%	113
CN\1C(=O)/C(=C(\N=C1N2CCCC[S+]2([O-])=O)C(=O)NCC3=CC=C(F)C=C3)O	cell viability	%	98.5
CC1(C)O[C@@H]2C[C@H]3[C@@H]4CCC5=CC(=O)C=C[C@]5(C)[C@@]4(F)[C@@H](O)C[C@]3(C)[C@]2(C(=O)CO)O1	cell viability	%	91.2
C[C@](O)(COc1ccc(C#N)cc1)C(=O)Nc1ccc(C#N)c(C(F)(F)F)c1	cell viability	%	91.3

Consider now this further compound.
GET cell viability | system: SEM cells | item: CCc1cncnc1N1CCN(Cc2nc3cc(C(F)(F)F)ccc3[nH]2)CC1
106
